- Test system: SK-N-MM (SKNMM-MYCN, doxycycline-inducible MYCN)
- method summary: area under dose-response curve (CellTiter-Glo viability normalised to plate controls) (AUC (arbitrary units)); higher = more loss of viability; extreme values may be limits of the assay
- experimental conditions: MYCN induction (doxycycline): no doxycycline (MYCN not induced); time after drugging: 8 days
# binarize area under dose-response curve: threshold 100 inclusive, high side Yes, low side No

• CC(C)n1nc(-c2ccc3oc(N)nc3c2)c2c(N)ncnc21 [INK-128] = No
• CNC(=O)c1cc(Oc2ccc(NC(=O)Nc3ccc(Cl)c(C(F)(F)F)c3)c(F)c2)ccn1 [REGORAFENIB] = No
• CN(C)c1ccc2nc3ccc(=[N+](C)C)cc-3sc2c1 [METHYLENE BLUE] = No
• C[C@@H]1O[C@@H](O[C@H]2C[C@@H](O)[C@]3(CO)[C@H]4[C@H](O)C[C@]5(C)[C@@H](C6=CC(=O)OC6)CC[C@]5(O)[C@@H]4CC[C@]3(O)C2)[C@H](O)[C@H](O)[C@H]1O [OUABAIN] = Yes
• CC1(COc2ccc3c(c2)ncn3-c2ccc3cccc(N4CCC(N)CC4)c3n2)COC1 [CRENOLANIB] = Yes
• COc1cc([C@@H]2c3cc4c(cc3[C@@H](O[C@@H]3O[C@@H]5CO[C@@H](C)O[C@H]5[C@H](O)[C@H]3O)[C@H]3COC(=O)[C@H]23)OCO4)cc(OC)c1O [ETOPOSIDE] = No
• CC(C)NC[C@@H](C(=O)N1CCN(c2ncnc3c2[C@H](C)C[C@H]3O)CC1)c1ccc(Cl)cc1 [IPATASERTIB] = No
• CS(=O)(=O)c1ccc(-c2cnc(N)c(C(=O)Nc3ccccc3)n2)cc1 [VE-821] = No
• Nc1nc2[nH]cc(CCc3ccc(C(=O)N[C@@H](CCC(=O)O)C(=O)O)cc3)c2c(=O)[nH]1 [PEMETREXED] = No
• COC1=CC(c2cc3ccccc3[nH]2)=N/C1=C\c1[nH]c(C)cc1C [OBATOCLAX] = Yes
• COc1cc2/c(=N/c3ccc(Br)cc3F)nc[nH]c2cc1OCC1CCN(C)CC1 [VANDETANIB] = Yes
• C1=N/C2=N/c3ccc(OCCN4CCCC4)c(c3)COC/C=C/COCc3cccc(c3)C(=C1)N2 [PACRITINIB] = Yes
• O=C1c2c(O)ccc(O)c2C(=O)c2c(NCCNCCO)ccc(NCCNCCO)c21 [MITOXANTHRONE] = Yes
• Nc1nc(Cl)nc2c1ncn2[C@H]1C[C@H](O)[C@@H](CO)O1 [CLADRIBINE] = Yes
• CC(C)n1c(/C=C/C(O)CC(O)CC(=O)O)c(-c2ccc(F)cc2)c2ccccc21 (stereo unspecified) [FLUVASTATIN] = No
• NC(=O)Nc1cc(-c2cccc(F)c2)sc1C(=O)N[C@H]1CCCNC1 [AZD-7762] = Yes
• Cc1cn(-c2cc(NC(=O)c3ccc(C)c(Nc4nccc(-c5cccnc5)n4)c3)cc(C(F)(F)F)c2)cn1 [NILOTINIB] = No
• Cn1c(=O)n(-c2ccc(C(C)(C)C#N)cc2)c2c3cc(-c4cnc5ccccc5c4)ccc3ncc21 [DACTOLISIB] = No
• COc1cc2c(cc1-c1c(C)noc1C)ncc1[nH]c(=O)n([C@H](C)c3ccccn3)c12 [I-BET151] = No
• C=C1[C@@H](O)[C@@H]2O[C@]3(CC[C@H](/C=C/[C@@H](C)[C@@H]4CC(C)=C[C@@]5(O[C@H](C[C@@](C)(O)C(=O)O)CC[C@H]5O)O4)O3)CC[C@H]2O[C@@H]1[C@@H](O)C[C@H](C)[C@H]1O[C@@]2(CCCCO2)CC[C@H]1C [OKADAIC ACID] = Yes
• CCN(CC)CCCC(C)Nc1c2ccc(Cl)cc2nc2ccc(OC)cc12 (stereo unspecified) [QUINACRINE] = Yes
